The molecules listed here are annotated with their pIC50.
Target: human TRPA1 channel (Homo sapiens (Human), UniProt O75762)
Sequence (O75762 whole entry): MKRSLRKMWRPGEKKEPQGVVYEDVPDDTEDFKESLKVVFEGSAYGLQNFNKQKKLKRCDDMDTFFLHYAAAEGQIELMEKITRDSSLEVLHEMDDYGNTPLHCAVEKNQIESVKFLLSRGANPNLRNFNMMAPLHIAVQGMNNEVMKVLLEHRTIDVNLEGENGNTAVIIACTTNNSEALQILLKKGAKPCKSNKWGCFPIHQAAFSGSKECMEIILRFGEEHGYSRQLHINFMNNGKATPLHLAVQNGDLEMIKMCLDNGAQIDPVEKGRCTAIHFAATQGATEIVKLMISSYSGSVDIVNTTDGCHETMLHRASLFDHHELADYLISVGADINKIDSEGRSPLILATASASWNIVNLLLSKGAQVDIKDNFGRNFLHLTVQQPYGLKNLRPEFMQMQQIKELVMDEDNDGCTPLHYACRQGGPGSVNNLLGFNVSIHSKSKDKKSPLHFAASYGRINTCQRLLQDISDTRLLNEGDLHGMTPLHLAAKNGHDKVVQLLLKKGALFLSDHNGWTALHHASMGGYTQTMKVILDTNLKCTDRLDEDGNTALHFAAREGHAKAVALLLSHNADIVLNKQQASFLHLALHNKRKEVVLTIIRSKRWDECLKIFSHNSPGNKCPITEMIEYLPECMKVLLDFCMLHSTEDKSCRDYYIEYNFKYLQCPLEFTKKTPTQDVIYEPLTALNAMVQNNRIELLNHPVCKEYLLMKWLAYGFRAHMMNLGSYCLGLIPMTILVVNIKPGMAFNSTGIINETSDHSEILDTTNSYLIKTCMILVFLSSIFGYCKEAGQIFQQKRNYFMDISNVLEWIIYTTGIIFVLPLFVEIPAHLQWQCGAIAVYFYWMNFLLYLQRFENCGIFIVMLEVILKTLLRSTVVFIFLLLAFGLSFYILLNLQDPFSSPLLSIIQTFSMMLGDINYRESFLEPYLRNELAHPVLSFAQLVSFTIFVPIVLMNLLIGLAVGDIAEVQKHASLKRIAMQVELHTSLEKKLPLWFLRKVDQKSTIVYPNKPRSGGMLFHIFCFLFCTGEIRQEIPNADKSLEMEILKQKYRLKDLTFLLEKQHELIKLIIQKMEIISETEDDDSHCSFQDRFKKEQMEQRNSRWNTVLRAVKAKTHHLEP
Assay: TRPA1 inhibitor activity, automated patch clamp (SyncroPatch)
Format: cell-based
Settings: CHO cells inducibly expressing human TRPA1; currents elicited by carvacrol (300 μM), holding potential −60 mV; Table 4
pIC50: −log10 of the molar value.
MEASUREMENT NAME: pIC50

1. Nc1c(Cl)c(F)n(Cc2nc(C[C@H](O)c3ccc(Cl)cc3)no2)c(=O)c1Cl: > 6.00
2. Cc1nc(Br)cn(Cc2nc(C[C@H](O)c3ccc(Cl)cc3)no2)c1=O: > 6.52
3. Cc1c(Br)ccn(Cc2nc(CCc3ccc(Cl)cc3)no2)c1=O: > 5.52
4. Cc1cc(CC#N)cn(Cc2nc(CCc3ccc(Cl)cc3)no2)c1=O: > 6.00
5. Cc1c(N)ncn(Cc2nc(C[C@H](O)c3ccc(Cl)cc3)no2)c1=O: > 6.00
6. NC(=O)c1cn(Cc2nc(C[C@H](O)c3ccc(Cl)cc3)no2)c(=O)c(Cl)n1: > 6.00
7. Cc1cn(Cc2nc(C[C@H](O)c3ccc(Cl)cc3)no2)c(=O)c(C)n1: > 6.00
8. NC(=O)c1cc(Cl)c(=O)n(Cc2nc(CCc3ccc(Cl)cc3)no2)c1: > 6.52
9. Cc1cc(CC(N)=O)cn(Cc2nc(CCc3ccc(Cl)cc3)no2)c1=O: > 5.00
